meta.source: patent US20190177417A1

SYSTEM UNDER TEST: T1, Axl protein (human, UniProt P30530 26-451)
T1 construct: extracellular domain; also called human Axl; hAxl
T1 sequence (looked up): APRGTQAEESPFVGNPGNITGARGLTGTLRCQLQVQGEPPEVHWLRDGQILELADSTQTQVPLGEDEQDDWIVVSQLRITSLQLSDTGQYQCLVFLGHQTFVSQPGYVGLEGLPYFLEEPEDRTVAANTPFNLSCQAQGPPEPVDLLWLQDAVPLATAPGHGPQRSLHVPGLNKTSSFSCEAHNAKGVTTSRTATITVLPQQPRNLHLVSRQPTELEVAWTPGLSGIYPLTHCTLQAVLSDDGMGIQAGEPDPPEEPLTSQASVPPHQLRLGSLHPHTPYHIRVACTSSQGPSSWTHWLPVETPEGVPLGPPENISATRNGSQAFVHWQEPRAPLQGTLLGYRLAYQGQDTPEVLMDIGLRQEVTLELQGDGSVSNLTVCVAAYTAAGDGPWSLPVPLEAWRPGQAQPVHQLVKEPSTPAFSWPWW
TEST DETAILS: ELISA, 1:3 dilution, pH 6.0 over pH 7.4
In plain terms, low Affinity ELISA CPE mutant ratio (1:3, pH 6.0/7.4), meaning strictly below 3 ratio, gives met, and everything else gives not met.

- BINDER: "HC-E102G (antibody, V domains shown) VH: EVQLVQSGAEVKKPGATVKISCKVSGYSFTGHTMNWIRQPPGKGLEWIGLIKPSNGGTSYNQKFKGRVTISADKSISTAYLQWSSLKASDTAMYYCAHGHYGSYFAMDYWGQGTLVTVSS VL: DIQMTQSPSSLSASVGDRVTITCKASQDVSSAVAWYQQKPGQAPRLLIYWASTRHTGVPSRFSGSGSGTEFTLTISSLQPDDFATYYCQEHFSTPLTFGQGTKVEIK"
  GROUP: "met"
- BINDER: "HC-S103Q (antibody, V domains shown) VH: EVQLVQSGAEVKKPGATVKISCKVSGYSFTGHTMNWIRQPPGKGLEWIGLIKPSNGGTSYNQKFKGRVTISADKSISTAYLQWSSLKASDTAMYYCAHGHYEQYFAMDYWGQGTLVTVSS VL: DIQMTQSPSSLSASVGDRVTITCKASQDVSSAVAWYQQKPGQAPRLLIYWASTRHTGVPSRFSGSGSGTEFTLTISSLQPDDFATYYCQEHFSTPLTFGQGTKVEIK"
  GROUP: "met"
- BINDER: "HC-E102D (antibody, V domains shown) VH: EVQLVQSGAEVKKPGATVKISCKVSGYSFTGHTMNWIRQPPGKGLEWIGLIKPSNGGTSYNQKFKGRVTISADKSISTAYLQWSSLKASDTAMYYCAHGHYDSYFAMDYWGQGTLVTVSS VL: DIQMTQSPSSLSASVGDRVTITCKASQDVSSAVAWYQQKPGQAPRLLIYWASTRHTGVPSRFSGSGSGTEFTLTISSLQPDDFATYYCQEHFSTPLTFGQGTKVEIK"
  GROUP: "met"
- BINDER: "HC-W110L (antibody, V domains shown) VH: EVQLVQSGAEVKKPGATVKISCKVSGYSFTGHTMNWIRQPPGKGLEWIGLIKPSNGGTSYNQKFKGRVTISADKSISTAYLQWSSLKASDTAMYYCAHGHYESYFAMDYLGQGTLVTVSS VL: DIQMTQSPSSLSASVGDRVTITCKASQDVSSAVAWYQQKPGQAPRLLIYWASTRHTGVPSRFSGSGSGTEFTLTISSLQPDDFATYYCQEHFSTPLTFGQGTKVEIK"
  GROUP: "not met"
- BINDER: "HC-M107E (antibody, V domains shown) VH: EVQLVQSGAEVKKPGATVKISCKVSGYSFTGHTMNWIRQPPGKGLEWIGLIKPSNGGTSYNQKFKGRVTISADKSISTAYLQWSSLKASDTAMYYCAHGHYESYFAEDYWGQGTLVTVSS VL: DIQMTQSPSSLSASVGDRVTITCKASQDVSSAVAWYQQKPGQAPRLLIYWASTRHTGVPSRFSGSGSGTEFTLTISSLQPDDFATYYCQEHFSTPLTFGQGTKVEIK"
  GROUP: "met"
